system: alternative oxidase (AOX); assay: AOX inhibitors, oxygen consumption, profiling panel (AID 1259412); conditions: AOX-dependent respiration, at 500 µM, stronger effect = lower value
Value type: O2 uptake (% of control) (%)
State just the number; it will be interpreted in %.

O=C(Nc1cccc(OCc2ccccc2)c1)c1cccc(F)c1; 41.2

Kindly review the next compound as well.
query: Request - read-out O2 uptake (% of control) | tested on alternative oxidase (AOX) | compound O=C(Nc1cccc(NC(=O)c2ccccc2)c1)c1ccccc1
result: 44

====

test: AOX inhibitors, oxygen consumption, profiling panel (AID 1259412); settings: AOX-dependent respiration, O2 uptake; measured here: growth, AOX-dependent treatment condition; at 500 µM; stronger effect = lower value;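 on growth (% of control): growth monitored over 72 h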
Value type: growth (% of control) (%)
State just the number; it will be interpreted in %.

NC(=O)c1ccccc1NC(=O)c1cccc(Cl)c1; 65.4

query: Suppose we examine the molecule O=C(Nc1cccc(I)c1)c1ccccc1 ; what growth (% of control) value has been reported?
result: 95

query: Suppose we examine the molecule O=C(Nc1cccc(I)c1)c1ccccc1I ; what growth (% of control) value has been reported?
result: 112

query: Suppose we examine the molecule O=C(Nc1cccc(OCc2ccccc2)c1)c1cccc(Cl)c1 ; what growth (% of control) value has been reported?
result: 95.6

====

test system: alternative oxidase (AOX); assay: AOX inhibitors, oxygen consumption, profiling panel (AID 1259412); conditions: AOX-dependent respiration, at 500 µM, stronger effect = lower value
Value type: O2 uptake (% of control) (%)
State just the number; it will be interpreted in %.

Reference set, count: 10
COc1cccc(C(=O)Nc2cccc([N+](=O)[O-])c2)c1; 31.9
NC(=O)c1ccccc1NC(=O)c1cccc(Br)c1; 36.9
O=C(Nc1ccccc1)c1cccc(I)c1; 21.9
O=C(Nc1cccc(F)c1)c1cccc(F)c1; 52.3
N#Cc1cccc(C(=O)Nc2ccccc2C(N)=O)c1; 95.7
O=C(Nc1ccc(N2CCOCC2)cc1)c1cccc(I)c1; 74.5
O=C(Nc1cccc(OCc2ccccc2)c1)c1cccc(Cl)c1; 76.1
Cc1cccc(C(=O)Nc2cccc(NC(=O)c3cccc(C)c3)c2)c1; 51.6
COc1cccc(C(=O)Nc2ccccc2C(N)=O)c1; 76.2
COc1cc(NC(=O)c2cccc(Br)c2)cc(OC)c1OC; 63.6

query: Suppose we examine the molecule COc1cc(NC(=O)c2cccc(Cl)c2)cc(OC)c1OC ; what O2 uptake (% of control) value has been reported?
result: 81.5

query: Suppose we examine the molecule N#Cc1cccc(C(=O)NCc2ccc3c(c2)OCO3)c1 ; what O2 uptake (% of control) value has been reported?
result: 66.1

====

test: AOX inhibitors, oxygen consumption, profiling panel (AID 1259412); details: AOX-dependent respiration, O2 uptake; measured here: growth, AOX-dependent treatment condition; at 500 µM; stronger effect = lower value;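 on growth (% of control): growth monitored over 72 h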
Mark each entry y if its growth (% of control) sits below 70%, and n for all others.

COc1cccc(C(=O)Nc2cccc(Cl)c2)c1; y
N#Cc1cccc(C(=O)Nc2cccc(Cl)c2)c1; y
O=C(Nc1ccccc1)c1cccc(F)c1; n
NC(=O)c1ccccc1NC(=O)c1cccc(Br)c1; n

query: State whether 70% exceeds growth (% of control) recorded for COc1cc(NC(=O)c2cccc(F)c2)cc(OC)c1OC .
result: n

query: State whether 70% exceeds growth (% of control) recorded for NC(=O)c1ccccc1NC(=O)c1cccc(F)c1 .
result: n
